- experimental-protocol: Lactate dehydrogenase (LDH) release assay
- Assay type: cell-based
- condition-parameters: LDH: Cytotoxicity assay EC50
quantity: EC50

molecule	measured
CC(=O)N[C@@H](CCCCN=[N+]=[N-])C(=O)NCCC(=O)N[C@@H](CC(C)C)C(=O)N(C)[C@H](C(=O)N[C@@H](Cc1ccccc1)C(=O)N[C@]1(C)CCCCCCC=CCCC[C@@](C)(C(=O)N[C@@H](CO)C(=O)N[C@@H](C)C(=O)N[C@@H](C)C(N)=O)NC(=O)[C@H](CC2CCC2)NC(=O)[C@H](CCC(N)=O)NC(=O)[C@H](C)NC(=O)[C@H](Cc2c[nH]c3ccccc23)NC(=O)[C@H](Cc2ccc(O)cc2)NC(=O)[C@H](CCC(=O)O)NC1=O)[C@@H](C)O [MP-190]	> 50 µM

---

Reported logD by item:
- experimental-protocol: Experimental LogD (partition coefficient)
- condition-parameters: not stated, Partition Coeff LogD
Positions of bridges follow the written chain, without caps; N, C: chain ends. Non-standard residues stand in square brackets, D forms with d. Residues, ends and D or L forms follow the SMILES beside them. dPhe(4-CF3) = N[C@H](Cc1ccc(C(F)(F)F)cc1)C(=O)O; dTrp(6-F) = N[C@H](Cc1c[nH]c2cc(F)ccc12)C(=O)O; R5 = C=CCCC[C@@](C)(N)C(=O)O

molecule	logD
CC(=O)N[C@@H](CCCCN=[N+]=[N-])C(=O)NCCC(=O)N[C@@H](CC(C)C)C(=O)N[C@@H](Cc1c[nH]cn1)C(=O)N[C@@H](Cc1ccccc1)C(=O)N[C@]1(C)CCCCCCC=CCCC[C@@](C)(C(=O)N[C@@H](CO)C(=O)N[C@@H](C)C(=O)N[C@@H](C)C(N)=O)NC(=O)[C@H](CC2CCC2)NC(=O)[C@H](CCC(N)=O)NC(=O)[C@H](C)NC(=O)[C@H](Cc2c[nH]c3ccccc23)NC(=O)[C@H](Cc2ccc(O)cc2)NC(=O)[C@H](CCC(=O)O)NC1=O [MP-174, AZIDE-ATSP-7041 (T2H)]	2.84
CC(C)C[C@@H](NC(=O)[C@@]1(C)CCCC=CCCC[C@@](C)(NC(=O)[C@@H](C)NC(=O)[C@@H](Cc2ccc(O)cc2)NC(=O)[C@@H](Cc2c[nH]c3cc(F)ccc23)NC(=O)[C@@H](C)NC(=O)[C@H](N)[C@H](C)O)C(=O)N[C@H](Cc2ccc(C(F)(F)F)cc2)C(=O)N[C@H](CCC(=O)O)C(=O)N[C@H](CCC(N)=O)C(=O)N1)C(=O)N[C@H](CO)C(N)=O [MP-795] (H-[dT][dA][dTrp(6-F)][dY][dA][R5][dPhe(4-CF3)][dE][dQ][R5][dL][dS]-NH2; staple 6-10)	2.32

---

- experimental-protocol: Solubility assay (kinetic solubility, PBS pH 7)
- Format: physicochemical
- condition-parameters: pH 7, PBS
quantity: Solubility

substance-smiles	measured
CC(=O)N[C@@H](CCCCN=[N+]=[N-])C(=O)NCCC(=O)N[C@@H](CC(C)C)C(=O)N[C@H](C(=O)N[C@@H](Cc1ccccc1)C(=O)N[C@]1(C)CCCCCCC=CCCC[C@@](C)(C(=O)N2CCC[C@@H]2C(=O)N2CCC[C@@H]2C(=O)N2CCC[C@@H]2C(=O)N2CCC[C@@H]2C(=O)N2CCC[C@@H]2C(=O)N2CCC[C@@H]2C(N)=O)NC(=O)[C@H](CC2CCC2)NC(=O)[C@H](CCC(N)=O)NC(=O)[C@H](C)NC(=O)[C@H](Cc2c[nH]c3ccccc23)NC(=O)[C@H](Cc2ccc(O)cc2)NC(=O)[C@H](CCC(=O)O)NC1=O)[C@@H](C)O	Poorly Behaved
CC(=O)N[C@@H](CC(C)C)C(=O)N[C@H](C(=O)N[C@@H](Cc1ccccc1)C(=O)N[C@]1(C)CCCCCCC=CCCC[C@@](C)(C(=O)N[C@@H](CO)C(=O)N[C@@H](C)C(=O)N[C@@H](C)C(N)=O)NC(=O)[C@H](CC2CCC2)NC(=O)[C@H](CCC(N)=O)NC(=O)[C@H](C)NC(=O)[C@H](Cc2c[nH]c3cc(Cl)ccc23)NC(=O)[C@H](Cc2ccc(O)cc2)NC(=O)[C@H](CCC(=O)O)NC1=O)[C@@H](C)O	Poorly Behaved

Origin of the recorded values: paper PMC10786919
